Target: intracellular PLA2 (cytosolic PLA2, cPLA2) (Homo sapiens)
Sequence (P47712 1-749): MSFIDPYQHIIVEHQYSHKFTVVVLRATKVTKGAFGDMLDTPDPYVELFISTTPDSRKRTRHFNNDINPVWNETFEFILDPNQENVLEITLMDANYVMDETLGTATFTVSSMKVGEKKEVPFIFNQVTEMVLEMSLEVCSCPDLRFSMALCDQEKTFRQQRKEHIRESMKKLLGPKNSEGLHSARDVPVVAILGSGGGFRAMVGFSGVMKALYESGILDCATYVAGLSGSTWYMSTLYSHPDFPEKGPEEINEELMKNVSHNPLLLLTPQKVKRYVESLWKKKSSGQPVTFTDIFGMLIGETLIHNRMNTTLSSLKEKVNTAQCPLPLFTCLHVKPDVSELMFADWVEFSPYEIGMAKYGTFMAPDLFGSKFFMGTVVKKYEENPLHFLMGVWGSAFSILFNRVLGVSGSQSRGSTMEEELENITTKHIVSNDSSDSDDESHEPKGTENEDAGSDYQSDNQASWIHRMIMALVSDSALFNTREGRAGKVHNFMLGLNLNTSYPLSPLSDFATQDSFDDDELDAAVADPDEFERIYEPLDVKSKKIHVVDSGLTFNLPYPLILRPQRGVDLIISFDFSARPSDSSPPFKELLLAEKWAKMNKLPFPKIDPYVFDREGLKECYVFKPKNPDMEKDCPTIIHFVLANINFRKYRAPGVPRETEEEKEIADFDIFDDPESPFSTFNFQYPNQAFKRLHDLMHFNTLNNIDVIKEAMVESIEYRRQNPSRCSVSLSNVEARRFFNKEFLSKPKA
Assay: Intracellular PLA2 (cPLA2) inhibitory activity (14C-arachidonyl phosphatidylcholine substrate)
Settings: 2 μM radiolabelled phosphatidylcholine, 1 μM dioleoylglycerol, 1 mM CaCl2, pH 7.4; read-out: c-PLA2 Inhibition IC50
Assay readout: IC50 (µM)
Entry rule: numbers only, all in µM.

[
  {
    "Compound": "COc1c(C)c(OC(=O)c2c(C)c(C)c(OCCCOc3cccc(F)c3)c(C)c2OC)c(C)c(C)c1C(=O)O [Example 34]",
    "Unit of measure": "µM",
    "Observed measurement": 9.7
  },
  {
    "Compound": "COc1c(C)c(OC(=O)c2c(C)c(C)c(OCCC(C)CCCC(C)C)c(C)c2OC)c(C)c(C)c1C(=O)O (centres unmarked) [Example 50]",
    "Unit of measure": "µM",
    "Observed measurement": 3
  },
  {
    "Compound": "COc1c(C)c(OC(=O)c2c(C)c(C)c(OCCCOc3ccc(Br)cc3Br)c(C)c2OC)c(C)c(C)c1C(=O)O [Example 26]",
    "Unit of measure": "µM",
    "Observed measurement": 2.6
  },
  {
    "Compound": "COc1c(C)c(OCCCOc2ccc3ccccc3c2)c(C)c(C)c1C(=O)O [Example 18]",
    "Unit of measure": "µM",
    "Observed measurement": 19
  },
  {
    "Compound": "COc1c(C)c(OC(=O)c2c(C)c(C)c(OCCCOc3ccc(C)cc3)c(C)c2OC)c(C)c(C)c1C(=O)O [Example 29]",
    "Unit of measure": "µM",
    "Observed measurement": 8.5
  }
]

Looking up COc1c(C(C)(C)C)cc(SCCCCCCOc2c(C)c(C)c(C(=O)O)c(OC)c2C)cc1C(C)(C)C [Example 13] , I found its IC50 recorded as 1.9

Looking up COc1c(C)c(OC(=O)c2c(C)c(C)c(OCCCOc3ccc(C(C)=O)cc3)c(C)c2OC)c(C)c(C)c1C(=O)O [Example 31] , I found its IC50 recorded as 24

The measured values listed here are drawn from patent US5534533A.
